Molecular target: recombinant PCSK9 (Homo sapiens)
Test: LDLR Flow (FACS) Assay (% inhibition of recombinant PCSK9)
Format: cell-based
Settings: Huh-7, compound dose 1.25 uM, 5.0 ug/mL recombinant PCSK9, HuH7 cells (FIG. 2), read-out: LDLR Flow Assay: % Inhibition of 5.0 ug/mL recombinant PCSK9 @ X compound dose
Property Name: inhibition at 1.25 µM

| Cpd Smiles | Property Name | Recorded Value |
| --- | --- | --- |
| Oc1cc(Oc2ccc(N3CCNCC3)cc2)ncn1 | inhibition at 1.25 µM | ~30% |
| c1ccc(Oc2ccc(N3CCNCC3)cc2)cc1 | inhibition at 1.25 µM | ~20% |
| O=C1CNCCN1c1ccc(Oc2ccccc2)cc1 | inhibition at 1.25 µM | ~18% |
| O=S(=O)(c1ccccc1)c1ccc(N2CCNCC2)c(F)c1 | inhibition at 1.25 µM | ~45% |
| c1cc(C2CCNCC2)ccc1OC1CCCCC1 | inhibition at 1.25 µM | ~25% |
| c1ccc(COc2ccc(N3CCNCC3)cc2)cc1 | inhibition at 1.25 µM | ~16% |
| O=S(=O)(Nc1ccccc1)c1ccc(N2CCNCC2)cc1 | inhibition at 1.25 µM | > 10% |
| O=S(=O)(c1ccc(N2CCNCC2)cc1)N1CCCC1 | inhibition at 1.25 µM | ~10% |
| Fc1ccc(Cc2ccc(N3CCNCC3)cc2)cc1 | inhibition at 1.25 µM | ~15% |
| O=S(=O)(Nc1ccc2c(c1)CCCC2)c1ccc(N2CCNCC2)cc1 | inhibition at 1.25 µM | ~10% |

###

# inhibition at 10 µM values compiled below
Biological target: recombinant PCSK9 (Homo sapiens, UniProt Q8NBP7)
Sequence (Q8NBP7 153-692): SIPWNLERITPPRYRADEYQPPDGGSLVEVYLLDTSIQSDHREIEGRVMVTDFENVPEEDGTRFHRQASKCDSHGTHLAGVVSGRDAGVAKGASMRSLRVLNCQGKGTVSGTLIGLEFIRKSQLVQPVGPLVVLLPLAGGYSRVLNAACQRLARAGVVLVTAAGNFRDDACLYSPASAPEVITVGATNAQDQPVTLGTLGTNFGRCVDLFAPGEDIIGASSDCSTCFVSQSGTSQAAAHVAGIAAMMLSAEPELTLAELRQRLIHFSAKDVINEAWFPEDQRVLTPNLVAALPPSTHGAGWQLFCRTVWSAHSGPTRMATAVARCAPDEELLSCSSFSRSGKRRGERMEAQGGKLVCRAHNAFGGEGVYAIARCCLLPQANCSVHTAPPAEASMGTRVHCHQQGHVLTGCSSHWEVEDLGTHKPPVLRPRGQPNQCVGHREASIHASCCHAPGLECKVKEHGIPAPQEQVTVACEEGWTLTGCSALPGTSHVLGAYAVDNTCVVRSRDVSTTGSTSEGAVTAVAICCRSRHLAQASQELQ
Test: LDLR Flow (FACS) Assay (% inhibition of recombinant PCSK9)
Type: cell-based
Conditions: Huh-7, compound dose 10 uM, 5.0 ug/mL recombinant PCSK9, HuH7 cells (FIG. 2), read-out: LDLR Flow Assay: % Inhibition of 5.0 ug/mL recombinant PCSK9 @ X compound dose

| Cpd Smiles | Measurement Target | inhibition at 10 µM |
| --- | --- | --- |
| O=S(=O)(c1ccc(N2CCNCC2)cc1)N1CCCC1 | recombinant PCSK9 (Homo sapiens, UniProt Q8NBP7) | ~20% |
| O=S(=O)(Nc1ccc2c(c1)CCCC2)c1ccc(N2CCNCC2)cc1 | recombinant PCSK9 (Homo sapiens, UniProt Q8NBP7) | ~25% |
| c1ccc(COc2ccc(N3CCNCC3)cc2)cc1 | recombinant PCSK9 (Homo sapiens, UniProt Q8NBP7) | ~34% |
| O=S(=O)(Nc1ccccc1)c1ccc(N2CCNCC2)cc1 | recombinant PCSK9 (Homo sapiens, UniProt Q8NBP7) | > 25% |
| c1cc(N2CCNCC2)ccc1OC1CCCCC1 | recombinant PCSK9 (Homo sapiens, UniProt Q8NBP7) | ~40% |
| c1ccc(Oc2ccc(N3CCNCC3)cc2)cc1 | recombinant PCSK9 (Homo sapiens, UniProt Q8NBP7) | ~30% |
| Fc1ccc(Cc2ccc(N3CCNCC3)cc2)cc1 | recombinant PCSK9 (Homo sapiens, UniProt Q8NBP7) | ~40% |
| c1cc(C2CCNCC2)ccc1OC1CCCCC1 | recombinant PCSK9 (Homo sapiens, UniProt Q8NBP7) | ~35% |
